% Inhibition listing for selected molecules.
Tested on: Plasmodium falciparum
Test: Confirmatory screen in NF54 pLDH assay, in single point, at 2uM, 72h
Assay type: functional, Erythrocyte
Details: timepoint 72 hour
Screen size: about 4,800 compounds; about 410 (8.5%) showed an effect of 50% or more. This excerpt belongs to a sample that is enriched for strong results.
The response must be a number in % with no trailing unit.

# count of solved cases: 2
[
  {
    "Molecule": "COC(=O)c1nc(NC(=O)C2(C)CCCC2)sc1C(C)C",
    "Unit Of Measure": "%",
    "% Inhibition": -9
  },
  {
    "Molecule": "CC(C)C[C@@H]1N[C@H](C(=O)NCCN(C)C)Cc2c[nH]c3cccc1c23",
    "Unit Of Measure": "%",
    "% Inhibition": -19
  }
]

## Task Assign % Inhibition to the following record: "Cc1cc2nc(C)c(=O)n(Cc3ccc(C(=O)N4CCC(Cc5ccccc5)CC4)cc3)c2cc1C"
## Result 12

## Task Assign % Inhibition to the following record: "O=C(NCC1CC1)c1cn[nH]c1-c1ccccc1"
## Result 1

## Task Assign % Inhibition to the following record: "COc1cc(-c2nc3ccccc3s2)ccc1OCc1cccc2ccccc12"
## Result 0

## Task Assign % Inhibition to the following record: "CCc1nnc2c(S(=O)(=O)Nc3cc(F)cc(F)c3)cccn12"
## Result 9

## Task Assign % Inhibition to the following record: COc1ccccc1C1CC1c1nc(CC(=O)NC2CCCC2)no1 (stereo unspecified)
## Result -5

## Task Assign % Inhibition to the following record: "CCC(CC)C(=O)Nc1cccc(Cl)c1C"
## Result 4

## Task Assign % Inhibition to the following record: "O=C(CCc1nc2ccccc2c(=O)[nH]1)Nc1ccc(-n2cnnn2)cc1"
## Result 6

## Task Assign % Inhibition to the following record: "Cn1ncc2c(N3CC(=O)N(C4CC4)C3)ncnc21"
## Result -15

## Task Assign % Inhibition to the following record: "O=C(Cc1c[nH]c2ccccc12)N1CCc2ccccc2C1"
## Result -17

## Task Assign % Inhibition to the following record: "Cc1c(NC(=O)c2ccccc2-c2ccccc2)ccc(N2CCCC2=O)c1NC(=O)c1ccccc1-c1ccccc1"
## Result -15

## Task Assign % Inhibition to the following record: "Cc1ccccc1N1C(O)=Nc2ccccc2S1(=O)=O"
## Result -19

## Task Assign % Inhibition to the following record: "CCn1nc(-n2cnnc2)c(NS(=O)(=O)c2cccc(Cl)c2)c1C"
## Result 3

## Task Assign % Inhibition to the following record: "COc1ccc2cc3n(c2c1)C[C@](C(=O)NC1CCCCCC1)(c1ccccc1)N(Cc1cccc(Br)c1)C3=O"
## Result 10

## Task Assign % Inhibition to the following record: "Cc1ccc(C(=O)N(Cc2cccc(F)c2)c2ccc(CC(=O)N[C@@H](C)c3ccccc3)cc2)cc1"
## Result 89

## Task Assign % Inhibition to the following record: CC1CCCC(C)C12NC(=O)N(CN1CCN(CCOc3ccccc3Cl)CC1)C2=O (stereo unspecified)
## Result 5

## Task Assign % Inhibition to the following record: "COc1ccc(-c2cc3n(n2)C[C@@](C)(C(=O)NCc2ccccc2)N(Cc2ccc4c(c2)OCO4)C3=O)cc1"
## Result 39

## Task Assign % Inhibition to the following record: "CCOc1cc(CNc2cccc3ccccc23)cc(Br)c1OCC(=O)NC(C)(C)C"
## Result 91

## Task Assign % Inhibition to the following record: "COc1cc(OC)cc(C2(O)CCN(C(=O)CCc3ccccc3F)CC2)c1"
## Result -20

## Task Assign % Inhibition to the following record: "CC[C@H]1Cn2c(C(=O)NC3CCCC3)cc3c(Cl)ccc(c32)O1"
## Result -11
